B1: Gamma-crystallin C, residues 91 to 170; numbered along this chain, P07315 (parent)
chain: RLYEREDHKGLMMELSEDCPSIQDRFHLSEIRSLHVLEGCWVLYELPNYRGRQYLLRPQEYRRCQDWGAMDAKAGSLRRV

Variants of: B1
Test: abundance fitness (aPCA) (normalised: wild type 0, dead -1); higher = more abundant; growth selection in yeast, the domain comes from the species named
Conditions: Homo sapiens
Each record's abundance fitness is compared with one (below -0.6), two (-0.6 to below -0.2), three (-0.2 or more) to give its class.

• I22W = one
• Y44P = one
• S16T = three
• H27W = two

Problem: Using the reported abundance fitness, which band applies to A72R ?
Solution: one

Problem: Category of H27R , please.
Solution: three

Problem: Into which bin does this variant go? R5P
Solution: one

Problem: Please let me know in which category the item Y54W belongs.
Solution: two

Problem: Returns: class label. Input: K9Q
Solution: three

Problem: Looking at M13A , which class would you pick?
Solution: three

Problem: Could you tell me which band S16Y belongs to?
Solution: three

Problem: Place this variant in its band: G10Q
Solution: one
